# System: THP-1
# assay.notes: Cytotoxicity against LPS and IFN-gamma-stimulated human THP1 cells after 24 hrs
# Assay type: functional, cell-based
# experimental.context: THP-1, 24 h
Task for the reader: assign each of the following molecules its reported EC50.
Express it in µM; write the number only.

Exam item: What does the data say about its EC50? Entry: C=CCN1C(=O)S/C(=C\c2cn(-c3ccccc3)nc2-c2ccc(Cl)cc2)C1=O
Marked response: 120

Exam item: Item Cc1ccc(-c2cc(C(F)(F)F)nn2-c2ccc(S(N)(=O)=O)cc2)cc1 has what recorded EC50?
Marked response: 50

Exam item: Can you look up the measured EC50 of O=C1NC(=O)/C(=C/c2cn(-c3ccccc3)nc2-c2ccccc2)S1 for me?
Marked response: 50

Exam item: Can you share its EC50? I mean this molecule: O=C1S/C(=C\c2cn(-c3ccccc3)nc2-c2ccc(Cl)cc2)C(=O)N1Cc1cccc(Br)c1
Marked response: 5

Exam item: Consider the molecule O=C1S/C(=C\c2cn(-c3ccccc3)nc2-c2ccc(Cl)cc2)C(=O)N1Cc1ccc(Cl)cc1 and give its measured EC50.
Marked response: 4

Exam item: Need EC50, item O=C1S/C(=C\c2cn(-c3ccccc3)nc2-c2ccc(Cl)cc2)C(=O)N1Cc1ccccc1
Marked response: 1

Exam item: Quick one: EC50 of O=C1S/C(=C\c2cn(-c3ccccc3)nc2-c2ccccc2)C(=O)N1Cc1ccc(Cl)cc1 ?
Marked response: 50

Cited source: ChEMBL document CHEMBL1157559
